- Tested on: Saccharomyces cerevisiae
- Test name: Activity of commercial yeast alpha-glucosidase assessed as production of p-nitrophenol using p-nitrophenyl-alpha-D-glucopyranoside as substrate at 50 mM after 3 mins by spectrophotometer
Calls of active or inactive are those of the source. No cut-off for these calls is given here.
Classes used: yes = active, no = inactive

| Smiles entry | Qualitative label |
| --- | --- |
| CCCC[N+](CCCC)(CCCC)CC(=O)[O-] | yes |
| C[N+]1(CC(=O)[O-])CCCCC1 | no |
| C[N+]1(CC(=O)[O-])CCOCC1 | no |
| OCC(O)CO | no |
| C[N+](C)(C)CCCC(=O)[O-] | no |
| CC[N+](CC)(CC)CC(=O)[O-] | no |
| C[N+](C)(C)CC(=O)O | no |
| O[C@H]1[C@H](O)[C@@H](O)[C@H](O)[C@@H](O)[C@H]1O | no |
| CCC[N+](CCC)(CCC)CC(=O)[O-] | yes |
| C[N+](C)(C)CCCCCC(=O)[O-] | no |
| C[N+](C)(CC[N+](C)(C)CC(=O)[O-])CC(=O)[O-] | no |
| OC[C@@H](O)[C@@H](O)[C@H](O)[C@@H](O)CO | no |

These entries and their values trace back to ChEMBL document CHEMBL2146357.
